A collection of compounds and their measured Control Efficacy %
Tested on: Phytophthora infestans
Type: in vivo
assay_conditions: potato, 2000 ppm, 3 days after inoculation
Report the value in % with no unit label.

compound | Control Efficacy %, %
CCC(C)OC(=O)CC(C)NS(=O)(=O)c1ccccc1 (stereo not shown) [Example 8] | 100
CC(CC(=O)OCCCl)NC(=O)c1ccccc1 (racemic) [Example 11] | 95
CCCC(C)OC(=O)CC(C)NS(=O)(=O)c1ccccc1 (stereo not shown) [Example 9] | 99

Turning now to a further record.
# input Given the compound CCCCCCCCOC(=O)CC(C)NS(=O)(=O)c1ccccc1 (racemic) [Example 7] , what is its reported Control Efficacy %?
# output 100
